The reported numbers originate from PubChem BioAssay AID1919010.

tested on: Hs578T complex spheroid growth, percent test/control; experiment: Anticancer human tumor Hs578T cell line growth inhibition [AhR]; details: second compound 3.16 µM; first compound 10 µM; active compounds read low;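 also: luminescent viability signal as a proxy for spheroid growth; spheroids exposed to agents for one week after three days of growth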
So I've got a bunch of molecules here, and I need their viability, T/C values.
Answers are plain numbers, in %.

• O=C(c1cc(Cc2n[nH]c(=O)c3ccccc23)ccc1F)N1CCN(C(=O)C2CC2)CC1 + CC(CO)NC(=O)c1cc(-c2ccc(Cl)cc2)nn(-c2cnn(C)c2)c1=O = 88.5

Batch request: viability, T/C per item, same order as input.
1. O=C(c1cc(Cc2n[nH]c(=O)c3ccccc23)ccc1F)N1CCN(C(=O)C2CC2)CC1 + Cc1cncc(-c2nc(NCCc3c[nH]c4ccccc34)c3ncn(C(C)C)c3n2)c1
2. Nc1ccccc1NC(=O)c1ccc(CNC(=O)OCc2cccnc2)cc1 + Cc1cncc(-c2nc(NCCc3c[nH]c4ccccc34)c3ncn(C(C)C)c3n2)c1
3. CC1COCCN1c1cc(C2(S(C)(=N)=O)CC2)nc(-c2ccnc3[nH]ccc23)n1 (stereo not given) + CC(CO)NC(=O)c1cc(-c2ccc(Cl)cc2)nn(-c2cnn(C)c2)c1=O
4. CC1(C)CCC(CN2CCN(c3ccc(C(=O)NS(=O)(=O)c4ccc(NCC5CCOCC5)c([N+](=O)[O-])c4)c(Oc4cnc5[nH]ccc5c4)c3)CC2)=C(c2ccc(Cl)cc2)C1 + Cc1ccccc1N=Nc1ccc(NC(=O)c2ccnn2C)c(C)c1

1. 69.2
2. 0.49
3. 59.5
4. 69.3

Items follow; give viability, T/C for each.
1. NS(=O)(=O)OCC1CC(n2ccc3c(NC4CCc5ccccc54)ncnc32)CC1O (stereo not given) + Cc1cncc(-c2nc(NCCc3c[nH]c4ccccc34)c3ncn(C(C)C)c3n2)c1
2. Nc1ccccc1NC(=O)c1ccc(CNC(=O)OCc2cccnc2)cc1 + Cc1ccccc1N=Nc1ccc(NC(=O)c2ccnn2C)c(C)c1
3. COc1cccc2c1C(=O)c1c(O)c3c(c(O)c1C2=O)CC(O)(C(=O)CO)CC3OC1CC(N)C(O)C(C)O1 (stereo not given) + CC(CO)NC(=O)c1cc(-c2ccc(Cl)cc2)nn(-c2cnn(C)c2)c1=O
4. COc1cccc2c1C(=O)c1c(O)c3c(c(O)c1C2=O)CC(O)(C(=O)CO)CC3OC1CC(N)C(O)C(C)O1 (stereo not given) + Cc1cncc(-c2nc(NCCc3c[nH]c4ccccc34)c3ncn(C(C)C)c3n2)c1
5. Nc1ccccc1NC(=O)c1ccc(CNC(=O)OCc2cccnc2)cc1 + CC(CO)NC(=O)c1cc(-c2ccc(Cl)cc2)nn(-c2cnn(C)c2)c1=O

1. 38.3
2. 1.24
3. 3.04
4. 1.75
5. 2.04
